# System: MDR-Pa
# Assay notes: Pseudomonas aeruginosa liquid killing assay on C. elegans (chemosensitization of MDR-Pa)
# Assay type: in vivo
# Applied conditions: 200 μM CAB compound + 100 μg/mL CPX
Listing: Survival x/50 in presence of CAB compounds at 200 μM of selected molecules
Metric: Survival x/50 in presence of CAB compounds at 200 μM

Compound smiles: CCCNC(=O)/C(=C/C=C/c1ccccc1)NC(=O)/C=C/c1ccccc1
Target entity: MDR-Pa
Result: 50 x/50
//
Compound smiles: O=C(C=Cc1ccccc1)N/C(=C\C=C\c1ccccc1)C(=O)N1CCOCC1
Target entity: MDR-Pa
Result: 40 x/50
//
Compound smiles: CCCCNC(=O)/C(=C/C=C/c1ccccc1)NC(=O)C=Cc1ccccc1
Target entity: MDR-Pa
Result: 45 x/50
//
Compound smiles: COc1cccc(NC(=O)/C(=C/C=C/c2ccccc2)NC(=O)C=Cc2ccccc2)c1
Target entity: MDR-Pa
Result: 25 x/50
//
Compound smiles: CNC(=O)/C(=C/C=C/c1ccccc1)NC(=O)C=Cc1ccccc1
Target entity: MDR-Pa
Result: 15 x/50
//
Compound smiles: O=C(C=Cc1ccccc1)N/C(=C\C=C\c1ccccc1)C(=O)N1CCCC1
Target entity: MDR-Pa
Result: 25 x/50
